Listed molecules paired with reported Mortality (%)
Test system: Northern house mosquito (female adult)
Test: Insecticidal test in acrylic resin cylinder, air blown through impregnated honeycomb carrier (Example 1)
Format: in vivo
Details: 24 hrs.; 500 mg preparation
Value Kind: Mortality (%)

> print(dat)
                                   molecule                     experimental.target  reported.value
1  C#CC(OC(=O)C1C(C=C(C)C)C1(C)C)/C(C)=C/CC (mixture of isomers)  Northern house mosquito (female adult)              96
2  C=CCC1=C(C)C(OC(=O)C2C(C)(C)C2(C)C)CC1=O (racemic)  Northern house mosquito (female adult)              88
3  C=CCC1=C(C)C(OC(=O)C2C(C=C(C)C)C2(C)C)CC1=O (stereo not drawn)  Northern house mosquito (female adult)              70
4  C#CCC1=C(C)C(OC(=O)C2C(C=C(C)C)C2(C)C)CC1=O (mixture of isomers)  Northern house mosquito (female adult)              86
5  C#CCc1ccc(COC(=O)C2C(C=C(C)C)C2(C)C)o1 (mixture of isomers)  Northern house mosquito (female adult)             100
6  CC(C)=CC1C(C(=O)OCc2coc(Cc3ccccc3)c2)C1(C)C (mixture of isomers)  Northern house mosquito (female adult)              58
